# test method notes: in vitro
# condition notes: dog, mdck
quantity measured: MCC

> print(dat)
                                   compound       result
1  NC(=O)c1ncn([C@@H]2O[C@H](CO)[C@@H](O)[C@H]2O)n1 [Ribavirin, reference compound]  > 100 µg/mL
2  NC12CC3CC(CC(C3)C1)C2 [Amantadine, reference compound]  > 100 µg/mL
3  CSC(=NC#N)NCCSCc1cccnc1Nc1ccccc1 [Example 3]  > 100 µg/mL

Request: Hello, please tell me recorded MCC for this one: CC(Cc1ccccc1)(C(=NC#N)NCCc1ccccc1)c1ccccn1 (centres unmarked) [Example 1]
Response: > 50 µg/mL

Request: Hello, please tell me recorded MCC for this one: CC(Cc1ccccc1)(C(=NC#N)NCc1ccco1)c1ccccn1 (centres unmarked) [Example 2]
Response: > 50 µg/mL
